Test system: Staphylococcus aureus
Assay: Antimicrobial activity against Staphylococcus aureus ATCC 6538 by MTT assay
Assay type: functional
So I've got a bunch of compounds here, and I need their MIC50 values.
Write the number in µg/mL without appending the unit.

For CC1(C)S[C@@H]2[C@H](NC(=O)Cc3ccccc3)C(=O)N2[C@H]1C(=O)O [PENICILLIN G SODIUM] , what is its reported MIC50?
0.54

For Nc1ncnc2c1ncn2[C@@H]1O[C@H](COC(=O)Cc2ccc(Cl)cc2)[C@@H](O)[C@H]1O then?
13.8

For Nc1ncnc2c1ncn2[C@@H]1O[C@H](COC(=O)Cc2ccc(Br)cc2)[C@@H](O)[C@H]1O then?
42.2
